Reference for the values: ChEMBL document CHEMBL1649503

# assay.comment: Tmax in Swiss-Webster mouse kidney at 10 mg/kg, ip after 24 hrs
# Format: ADME, organism-based
# Set-up: dose 10 mg/kg, route intraperitoneal
quantity.kind: Tmax

[in] Item `CCCCCCCCCCCCCCCCOCCCOP(=O)(O)CO[C@H](CO)Cn1cnc2c(N)ncnc21` has what recorded Tmax?
[out] 1 h

* * *

# assay.comment: Tmax in Swiss-Webster mouse liver at 10 mg/kg, po after 24 hrs
# Format: ADME, organism-based
# Parameters: dose 10 mg/kg, route oral
quantity.kind: Tmax (h)
Value expressed in h; do not type the unit.

[in] Entry under review: `CCCCCCCCCCCCCCCCOCCCOP(=O)(O)CO[C@H](CO)Cn1cnc2c(N)ncnc21` . Reported Tmax?
[out] 3

* * *

# assay.comment: Tmax in Swiss-Webster mouse plasma at 10 mg/kg, ip after 24 hrs
# Type: ADME, organism-based
# Parameters: dose 10 mg/kg, route intraperitoneal
quantity.kind: Tmax (h)
Your answer should be a plain number; it is taken to be in h.

[in] Would you kindly share the measured Tmax for `CCCCCCCCCCCCCCCCOCCCOP(=O)(O)CO[C@H](CO)Cn1cnc2c(N)ncnc21` ?
[out] 3

* * *

# assay.comment: Tmax in Swiss-Webster mouse heart at 10 mg/kg, po after 24 hrs
# Type: ADME, organism-based
# Design: dose 10 mg/kg, route oral
quantity.kind: Tmax (h)
Just the number in h, nothing appended.

[in] Fill in: Tmax of `CCCCCCCCCCCCCCCCOCCCOP(=O)(O)CO[C@H](CO)Cn1cnc2c(N)ncnc21` is ___
[out] 1

* * *

# assay.comment: Tmax in Swiss-Webster mouse brain at 10 mg/kg, ip after 24 hrs
# Assay type: ADME, organism-based
# Design: dose 10 mg/kg, route intraperitoneal
quantity.kind: Tmax (h)
Write it as a number; the unit h goes unstated.

[in] Report Tmax for `CCCCCCCCCCCCCCCCOCCCOP(=O)(O)CO[C@H](CO)Cn1cnc2c(N)ncnc21` please.
[out] 1

* * *

# assay.comment: Tmax in Swiss-Webster mouse lung at 10 mg/kg, po after 24 hrs
# Assay type: ADME, organism-based
# Set-up: dose 10 mg/kg, route oral
quantity.kind: Tmax (h)
Express your answer in h, writing the number without its unit.

[in] For `CCCCCCCCCCCCCCCCOCCCOP(=O)(O)CO[C@H](CO)Cn1cnc2c(N)ncnc21` , what is its reported Tmax?
[out] 3

* * *

# assay.comment: Oral bioavailability in Swiss-Webster mouse at 10 mg/kg after 24 hrs
# Format: ADME, organism-based
# protocol.conditions: in vivo
quantity.kind: bioavailability (%)
Supply the numeric figure in %, leaving out any unit text.

[in] Any idea what its bioavailability is? The compound is `CCCCCCCCCCCCCCCCOCCCOP(=O)(O)CO[C@H](CO)Cn1cnc2c(N)ncnc21`
[out] 64

* * *

# assay.comment: Cmax in Swiss-Webster mouse plasma assessed per gram of tissue at 10 mg/kg, po after 24 hrs
# Assay type: ADME, organism-based
# Parameters: dose 10 mg/kg, route oral
quantity.kind: Cmax (nM)
Respond numerically; units are nM and should not be typed.

[in] Look at this molecule and give its reported Cmax. `CCCCCCCCCCCCCCCCOCCCOP(=O)(O)CO[C@H](CO)Cn1cnc2c(N)ncnc21`
[out] 1110

* * *

Reported Selectivity Index values for the following molecules.
# assay.comment: Selectivity index, ratio of CC50 for human HepG2(2.2.15) cells to EC50 for HBV infected in human HepG2(2.2.15) cells

Previously resolved entries follow.
# smiles, Selectivity Index
data = [
    ("CCCCCCCCCCCCCCCCCCOCCOP(=O)(O)CO[C@H](CO)Cn1cnc2c(N)ncnc21", ">1422"),
    ("CCCCCCCCCCCCCCCCOCCCOP(=O)(O)CO[C@H](CO)Cn1cnc2c(N)ncnc21", ">483"),
    ("Nc1ncnc2c1ncn2C[C@@H](CO)OCP(=O)(O)O", ">60"),
]

Moving on to another molecule below.
[in] # Selectivity Index lookup, item `CC(C)CCCCCCCCCCCCCCOCCCOP(=O)(O)CO[C@H](CO)Cn1cnc2c(N)ncnc21`
[out] >1657

* * *

# assay.comment: Tmax in Swiss-Webster mouse spleen at 10 mg/kg, po after 24 hrs
# Type: ADME, organism-based
# Set-up: dose 10 mg/kg, route oral
quantity.kind: Tmax (h)
Write the value in h as a bare number.

[in] Reported Tmax for `CCCCCCCCCCCCCCCCOCCCOP(=O)(O)CO[C@H](CO)Cn1cnc2c(N)ncnc21` : what is it?
[out] 3

* * *

# assay.comment: Tmax in Swiss-Webster mouse kidney at 10 mg/kg, po after 24 hrs
# Assay type: ADME, organism-based
# Parameters: dose 10 mg/kg, route oral
quantity.kind: Tmax (h)
Report the figure in h without appending any unit label.

[in] State the recorded Tmax for this entry: `CCCCCCCCCCCCCCCCOCCCOP(=O)(O)CO[C@H](CO)Cn1cnc2c(N)ncnc21`
[out] 3

* * *

# Test system: Hepatitis B virus
# assay.comment: Antiviral activity against HBV harboring RNA polymerase L180M mutant gene infected in human HuH7 cells assessed as decrease in viral transient transfection after 5 days
# protocol.conditions: Huh-7, 5 days
quantity.kind: EC50 (µM)
Quick reminder: number only, in µM, skip the unit.

Recorded EC50, per entry:
# smiles, target.entity, value
measured = [
    ("Nc1ccn([C@@H]2CS[C@H](CO)O2)c(=O)n1", "Hepatitis B virus", 16),
    ("CC(C)(C)C(=O)OCOP(=O)(COCCn1cnc2c(N)ncnc21)OCOC(=O)C(C)(C)C", "Hepatitis B virus", 2.6),
]

[in] Lab note: need EC50 for `CCCCCCCCCCCCCCCCOCCCOP(=O)(O)CO[C@H](CO)Cn1cnc2c(N)ncnc21` on Hepatitis B virus, anyone have it?
[out] 1

* * *

# assay.comment: Tmax in Swiss-Webster mouse plasma at 10 mg/kg, po after 24 hrs
# Assay type: ADME, organism-based
# Set-up: dose 10 mg/kg, route oral
quantity.kind: Tmax (h)
Your answer is read as h, so omit the unit and give the number.

[in] Given the entry `CCCCCCCCCCCCCCCCOCCCOP(=O)(O)CO[C@H](CO)Cn1cnc2c(N)ncnc21` , report its measured Tmax.
[out] 1

* * *

# Test system: Hepatitis B virus
# assay.comment: Antiviral activity against HBV infected in human HepG2(2.2.15) cells assessed as decrease in extracellular viral DNA level after 24 hrs by blot hybridization assay
# Type: functional, organism-based
# protocol.conditions: HepG2 2.2.15, 24 h
quantity.kind: EC90 (nM)
# value in nM; strip the unit string

# smiles, EC90 [nM]
data = [
    ("Nc1ncnc2c1ncn2C[C@@H](CO)OCP(=O)(O)O", 5050),
    ("CC(C)CCCCCCCCCCCCCCOCCCOP(=O)(O)CO[C@H](CO)Cn1cnc2c(N)ncnc21", 181),
    ("CCCCCCCCCCCCCCCCOCCCOP(=O)(O)CO[C@H](CO)Cn1cnc2c(N)ncnc21", 616),
]

[in] Can you share its EC90? I mean this compound: `CCCCCCCCCCCCCCCCCCOCCOP(=O)(O)CO[C@H](CO)Cn1cnc2c(N)ncnc21`
[out] 211

* * *

# assay.comment: Tmax in Swiss-Webster mouse liver at 10 mg/kg, ip after 24 hrs
# Format: ADME, organism-based
# Parameters: dose 10 mg/kg, route intraperitoneal
quantity.kind: Tmax (h)
Report only the number, with the unit h understood.

[in] Suppose we examine the compound `CCCCCCCCCCCCCCCCOCCCOP(=O)(O)CO[C@H](CO)Cn1cnc2c(N)ncnc21` ; what Tmax value has been reported?
[out] 1
